System: HCT-116 colon
assay method text: NCI-60 one-dose screen, 48 h
recorded conditions: 10 µM unless noted
This is part of a sample that, as a whole, favours compounds with a hit. Of some 83,000 tested, about 20% had one in any assay. The source made the active and inactive calls. Rule for the calls: active = growth percent below 10; inactive = the rest.
Response enum: active, inactive

Qu. # outcome recorded in this test, key = Cc1ccc(S(=O)(=O)OC[C@@]2(C)CC[C@]3(C)CC[C@]4(C)C(=CC[C@@H]5[C@@]6(C)CCCNC(C)(C)[C@@H]6CC[C@]54C)[C@@H]3C2)cc1
Ans. active

Qu. Next: Cc1ccc(Nc2nc(-c3cc(O)c(C)c(C)c3O)cs2)cc1
Ans. inactive

Qu. Next: Cc1[nH]c(C(=O)Nc2nc3ccc(NC(=O)CCN)cc3s2)c(Cl)c1Cl
Ans. inactive

Qu. Next: Cn1c(=O)c2c(nc(Nc3cc(=O)[nH]c(=O)[nH]3)n2Cc2ccccc2)n(C)c1=O
Ans. inactive

Qu. Next: CCNC(=O)Nc1ncccc1OCc1ccc(F)cc1
Ans. inactive

Qu. Next: Cn1cc(C2=C(c3cccc4ccccc34)C(=O)NC2=O)c2cc(Br)ccc21
Ans. inactive

Qu. Next: Nc1nc2ccccc2c2c(=O)c3ccc(Cl)cc3sc12
Ans. inactive

Qu. Next: COc1ccc(N2CCN(S(=O)(=O)c3oc(-c4ccccc4)nc3C#N)CC2)cc1
Ans. inactive

Qu. Next: COc1cc(/C=C2\CCC/C(=C\c3cc(CN4CCCC4)c(O)c(OC)c3)C2=O)cc(CN2CCCC2)c1O
Ans. active

* * *

Test system: HT29 colon
assay method text: NCI-60 one-dose screen, 48 h (100 = growth as untreated, 0 = no growth, -100 = all killed)
recorded conditions: 10 µM
This is part of a sample that, as a whole, favours compounds with a hit. Of some 83,000 tested, about 20% had one in any assay.
Assign labels as follows, please: rule met for growth below 80%; rule not met for growth equal to or exceeding 80%.

Qu. Please indicate whether the reported growth of CC(=O)/C=C/c1ccc(OCc2ccc(C(C)(C)C)cc2)cc1 is strictly below 80%.
Ans. rule met

Qu. Next: COc1ccc(C(=O)/C=C/c2ccc(OCc3cccc(C(F)(F)F)c3)c(OC)c2)cc1OC
Ans. rule met

Qu. Next: COc1ccc(C(=O)/C=C/c2ccc(OCc3ccc(Cl)cc3)cc2)cc1OC
Ans. rule not met

Qu. Next: O=C(/C=C/c1cccc(Oc2ccc(Cl)cc2)c1)c1ccccc1
Ans. rule not met

Qu. Next: CC(=O)/C=C/c1ccc(N(CCO)Cc2ccc(C(C)(C)C)cc2)cc1
Ans. rule met

* * *

Record form. Attribute: growth. Fill in for each entry.
Tested on: NCI-H322M lung
assay method text: NCI-60 one-dose screen, 48 h (100 = growth as untreated, 0 = no growth, -100 = all killed)
recorded conditions: 10 µM unless noted
About 83,000 compounds went through this panel and 20% of them were active in at least one assay; those are over-represented in the sample as a whole.
Write the answer as a number in %, unit excluded.

Qu. Fill in: growth of O=C(Nc1ncc(Cc2cccc(C(F)(F)F)c2)s1)c1ccc(-n2cnnn2)cc1 is ___
Ans. 86.1

Qu. Next: O=c1cc(N/N=C/c2ccc(F)cc2)c2cc(Cl)ccc2[nH]1
Ans. 95.2

Qu. Next: CC[C@@H]1NC(=O)[C@H]([C@H](O)[C@H](C)C/C=C/c2ccc(CN3C(=O)C(C)=C(C)C3=O)cc2)N(C)C(=O)[C@H](C(C)C)N(C)C(=O)[C@H](CC(C)C)N(C)C(=O)[C@H](CC(C)C)N(C)C(=O)[C@@H](C)NC(=O)[C@H](C)NC(=O)[C@H](CC(C)C)N(C)C(=O)[C@H](C(C)C)NC(=O)[C@H](CC(C)C)N(C)C(=O)CN(C)C1=O
Ans. 65.7

Qu. Next: CCN(CC)CCOc1ccccc1C
Ans. 115

Qu. Next: BrC1=C(Br)C(Br)(Br)C(Br)=C1Br
Ans. 107

Qu. Next: COc1ccc(/C=N/C2=C(C#N)C(c3ccccc3)c3c(ccc4ccccc34)O2)cc1 (stereo not drawn)
Ans. 40.9

Qu. Next: CCOc1nc(-c2ccccc2)cc2c(O)c(C(=O)N/N=C/c3ccc(N(C)C)cc3)[nH]c(=O)c12
Ans. 113

Qu. Next: CN(C)C1CCN(C(=O)c2ccc(NC(=O)Nc3ccc(-c4nc(N5CCOCC5)c5cccn5n4)cc3)cc2)CC1
Ans. -9.27

Qu. Next: CCOC(=O)CCCn1c(-c2ccccc2)cc(-c2ccccc2)c(C#N)c1=O
Ans. 97.8

Qu. Next: O=C(Nc1ccc2ncsc2c1)c1csc(Nc2ccc3[nH]ncc3c2)n1
Ans. 51.5

Qu. Next: Cn1cc(C2=C(c3cccc4ccccc34)C(=O)NC2=O)c2cc(Br)ccc21
Ans. 100

Qu. Next: FC(F)(F)Sc1ccc(/C=C/c2cc(/C=C/c3ccc(SC(F)(F)F)cc3)n(-c3ccccc3)n2)cc1
Ans. 93.7

Qu. Next: O=C(c1ccc(Nc2nccc(NCCCNc3ccnc4cc(Cl)ccc34)n2)cc1)N1CCCCC1
Ans. 57.6

Qu. Next: COc1c(NC=O)c2c(c([N+](=O)[O-])c1OC)C(=O)OC2
Ans. 98.1

Qu. Next: NC1=CC(=O)c2cccnc2C1=O
Ans. 71.1

Qu. Next: O=C(Nc1ncc(Cc2cccc(C(F)(F)F)c2)s1)c1ccc2c(c1)OCCO2
Ans. 54.1

Qu. Next: Cc1ccc(C(=O)N(CCCN)[C@@H](c2nc3cc(Cl)ccc3c(=O)n2Cc2ccccc2)C(C)C)cc1
Ans. -9.48

Qu. Next: Cc1ccc2c(c1)C(C)Cc1c(ncnc1-n1cnc3cc(C)ccc31)N2C (stereo not drawn)
Ans. 63.5
